Source listed as PubChem BioAssay (NCI).

Test system: NCI-H23 lung
Assay: NCI tumour cell line growth inhibition, 48 h; in the data active = GI50 below about 0.43 µM; inactive = the rest
Outcome field: choose from true (1) for active, false (0) for inactive

Solved cases below.
- MOLECULE: "O=C(Nc1ccc(Cl)c(Cl)c1)Nc1ccccc1O"
  LABEL_VALUE: "false (0)"
- MOLECULE: "COC(=O)CCC1=C(CC(=O)OC)C(C)=N/C1=C\\c1[nH]c(-c2ccc[nH]2)cc1OC"
  LABEL_VALUE: "false (0)"
- MOLECULE: "CC/C=C/C/C=C/C/C=C/C/C=C/C/C=C/C/C=C/CCC(=O)Nc1ccn([C@@H]2O[C@H](CO)[C@@H](O)C2(F)F)c(=O)n1"
  LABEL_VALUE: "true (1)"

Lookup: Can you look up the reported call for O=C1C(Cl)=C(Nc2ccccc2O)C(=O)N1Cc1ccccc1 for me?
Found: false (0)

Lookup: Another molecule to check: CCCCCCCCCCN1CCC(N2CCCCC2)CC1
Found: false (0)

Lookup: Another molecule to check: O=C(CSC(c1ccccc1)c1ccccc1)N/N=C/c1ccco1
Found: false (0)

Lookup: Another molecule to check: CCCCCc1ccc(S(=O)(=O)Nc2cc(-c3csc(NC(C)=O)n3)ccc2N2CCN(C)CC2)cc1
Found: false (0)

Lookup: Another molecule to check: CCCCCCCCCCCCOC1C(C(CC(=O)NCCN2CCCC2)NS(=O)(=O)c2cc(Cl)cc(Cl)c2)OC2OC(C)(C)OC21 (stereo not drawn)
Found: false (0)

###

Test system: EKVX NSCLC
Experiment: NCI tumour cell line growth inhibition, 48 h
Here, each record is paired with measured TGI data.

- COMPOUND: "CCN(CC)CCNc1ccc2ncn3c4cc(OC)c(OC)c(=O)c4c(O)c1c23"
  TGI: "33.2 µM"
- COMPOUND: "COc1cc(C(=O)N2CCc3c([nH]c4c([N+](=O)[O-])c(OC)ccc34)C2C)cc(OC)c1OC (stereo unspecified)"
  TGI: "> 100 µM"
- COMPOUND: "Cc1ccc(-c2c(C#N)c(-c3ccc([N+](=O)[O-])cc3)c(C#N)c(=O)n2NS(=O)(=O)c2ccccc2)cc1"
  TGI: "> 100 µM"

Lookup: Quick one: TGI of COc1cc(C2C(C(=O)Nc3cc(F)c(F)cc3F)=C(C)NC(C)=C2C(=O)Nc2cc(F)c(F)cc2F)ccc1O ?
Found: 73.9 µM

###

Here, each record is paired with measured TGI data.
Tested on: NCI-H460 lung
Assay: NCI tumour cell line growth inhibition, 48 h

- COMPOUND: "CCN1C(=O)N(CC)C2Nn3c(s/c(=C4\\C(=O)N(C)c5ccccc54)c3=O)=NC21 (stereo not drawn)"
  RECORDED_MEASUREMENT: "> 100 µM"
- COMPOUND: "NS(=O)(=O)c1ccc(NC(NC(=O)C(C(F)(F)F)C(F)(F)F)(C(F)(F)F)C(F)(F)F)cc1"
  RECORDED_MEASUREMENT: "> 100 µM"

Lookup: Quick one: TGI of Cn1cc(-c2ccc(-c3cncc(Cl)c3N3CCC4(CCNC4=O)CC3)cc2)cn1 ?
Found: > 100 µM

###

Here, each record is paired with measured TGI data.
Tested on: MOLT-4 leukemia
Test: NCI tumour cell line growth inhibition, 48 h
Write down the numeric answer in µM and omit the unit.

- MOLECULE: "CCC(=O)Nc1ccc(N=NN(C)C)cc1"
  TGI, µM: 43.4

Lookup: Quick one: TGI of CCCCCCCCCCN1CCC(N2CCCCC2)CC1 ?
Found: 6.65

Lookup: Another molecule to check: CC1CN1c1c(C(=O)/C=C/c2ccc(Cl)cc2)c(-c2ccccc2)nn(C)c1=O (stereo not given)
Found: 8.02

Lookup: Another molecule to check: N#Cc1ccc(OC(=O)Nc2ccc(Cl)c(Cl)c2)cc1
Found: 27.8

###

Test system: HOP-18 NSCLC
Experiment: NCI tumour cell line growth inhibition, 48 h
READOUT: TGI

- COMPOUND: "COC(=O)/C(=C\\c1ccc(N(CCC#N)CCC#N)cc1)NC(=O)c1cc([N+](=O)[O-])ccc1Cl"
  ASSAYED_TARGET: "HOP-18 NSCLC"
  READOUT: "TGI"
  RECORDED_MEASUREMENT: "> 100 µM"

Lookup: Give TGI (HOP-18 NSCLC) of the following compound: O=C1C(=O)N(c2cc(Cl)ccc2Cl)C(=O)C(=O)C1c1nc2ccccc2o1
Found: > 100 µM

Lookup: Another compound to check: CCOc1ccccc1NC(=O)C(=O)Cc1nc2ccccc2s1
Found: > 100 µM

Lookup: Another compound to check: C=CCn1c2c(sc1=S)C(S)N=CN2 (stereo unspecified)
Found: 70.1 µM

###

Here, each record is paired with measured TGI data.
System: ACHN renal
Experiment: NCI tumour cell line growth inhibition, 48 h

A selection of reference data follows.
- MOLECULE: "CC(=O)OCCOCNC(=S)N/N=C/c1ccc(Br)s1"
  TGI: "> 100 µM"
- MOLECULE: "Nc1nc(N)nc(CCCc2nc(N)nc(N)n2)n1"
  TGI: "> 100 µM"
- MOLECULE: "CCN(CC)CCNC(=O)c1ccc(C)c(OCc2ccccc2)c1[N+](=O)[O-]"
  TGI: "> 89.6 µM"

Lookup: Give TGI (ACHN renal) of the following molecule: O=C(NO)c1ccc(CN(c2cnccn2)c2cnccn2)cc1
Found: 27.4 µM

Lookup: Another molecule to check: Cc1ncc([N+](=O)[O-])n1CCNS(=O)(=O)CCCn1ncnc1[N+](=O)[O-]
Found: > 100 µM

###

Here, each record is paired with measured TGI data.
System: SK-MEL-28 melanoma
Assay: NCI tumour cell line growth inhibition, 48 h

A selection of reference data follows.
- COMPOUND: "Cc1cc(C)n(-c2nnc3n2N=C(c2ccc(-c4ccccc4)cc2)CS3)n1"
  TGI: "> 100 µM"
- COMPOUND: "Cc1cc(/N=C/c2ccc(C#N)cc2)n(-c2ccccc2)n1"
  TGI: "> 100 µM"
- COMPOUND: "CO/N=C(/C)c1cccc(Nc2cc(-c3ccccc3)nc3ccc(OC)cc23)c1"
  TGI: "66.8 µM"
- COMPOUND: "O=[N+]([O-])c1ccc(C2=Nc3ccccc3SC(c3ccccc3)C2)cc1 (centres undefined)"
  TGI: "41.6 µM"
- COMPOUND: "CCOC(CN(C)C(=S)Nc1cccc2ccccc12)OCC"
  TGI: "> 10 µM"
- COMPOUND: "CCCCCc1ccc(S(=O)(=O)Nc2cc(-c3csc(NC(C)=O)n3)ccc2N2CCN(C)CC2)cc1"
  TGI: "7.49 µM"
- COMPOUND: "Cn1ccnc1Sc1ccc(C=Nc2ccc3nc(SCC(=O)NC4CCCCC4)sc3c2)cc1[N+](=O)[O-]"
  TGI: "> 100 µM"
- COMPOUND: "CC1C(c2ccc3c(c2)OCO3)c2cc3c(cc2OC1N1CCOCC1)OCO3 (centres undefined)"
  TGI: "> 46.4 µM"
- COMPOUND: "CCOC(=O)C1(C(=O)OCC)CCCN1C(=O)[C@H](CNC(=O)OC(C)(C)C)NC(=O)OCc1ccccc1"
  TGI: "> 100 µM"
- COMPOUND: "CCCCc1c2c(nc3c1CCC/C3=C\\c1ccccc1)/C(=C/c1ccccc1)CCC2"
  TGI: "> 100 µM"

Lookup: Quick one: TGI of Nc1ccccc1SC1CC(=O)N(c2ccc(Cl)c(Cl)c2)C1=O (centres undefined) ?
Found: > 100 µM

Lookup: Another compound to check: C=CCn1c2c(sc1=S)C(S)N=CN2 (centres undefined)
Found: > 100 µM

Lookup: Another compound to check: O=C(OCc1ccccc1)C(Cc1ccccc1)N(Cc1ccccc1)Cc1ccccc1 (centres undefined)
Found: > 100 µM

Lookup: Another compound to check: COc1cc(OCc2ccc3nc(OC)c(OC)nc3c2)cc(OC)c1OC
Found: > 10 µM

Lookup: Another compound to check: CC(C)(C)c1ccc(OCC(=O)O)c(Cl)c1
Found: > 100 µM

Lookup: Another compound to check: COc1ccc2c(c1)C(C)Cc1c(ncnc1-n1cnc3cc(C)ccc31)N2C (centres undefined)
Found: 19.8 µM

Lookup: Another compound to check: NS(=O)(=O)c1ccc(NC(NC(=O)C(C(F)(F)F)C(F)(F)F)(C(F)(F)F)C(F)(F)F)cc1
Found: > 100 µM

Lookup: Another compound to check: COc1c(O)c(O)cc2c1-c1ccc(OC)c(=O)cc1C(NC(C)=O)CC2 (centres undefined)
Found: > 100 µM

###

System: SN12C renal
Experiment: NCI tumour cell line growth inhibition, 48 h; in the data active means GI50 below about 0.43 µM; inactive means the rest
Outcome field: choose from 1 = active, -1 = inactive

- COMPOUND: "Nc1ccccc1SC1CC(=O)N(c2ccc(Cl)c(Cl)c2)C1=O (stereo not given)"
  ASSAYED_TARGET: "SN12C renal"
  LABEL_VALUE: -1
- COMPOUND: "Clc1cc(Cl)cc(Nc2ccc3cc(OCCCN4CCOCC4)ccc3n2)c1"
  ASSAYED_TARGET: "SN12C renal"
  LABEL_VALUE: -1
- COMPOUND: "COc1ccc2c(c1)C(C)Cc1c(ncnc1-n1cnc3cc(C)ccc31)N2C (stereo not given)"
  ASSAYED_TARGET: "SN12C renal"
  LABEL_VALUE: 1

Lookup: Can you look up the reported call for CCCCCCCCCCCCOC1C(C(CC(=O)NCCN2CCCC2)NS(=O)(=O)c2cc(Cl)cc(Cl)c2)OC2OC(C)(C)OC21 (stereo not given) for me?
Found: -1

Lookup: Another compound to check: O=C(NCc1ccc(S(=O)(=O)c2cc(F)cc(F)c2)cc1)c1ccc2nccn2c1
Found: 1

Lookup: Another compound to check: O=C(NO)c1ccc(CN(c2cnccn2)c2cnccn2)cc1
Found: -1

Lookup: Another compound to check: O=C1C(Cl)=C(Nc2ccccc2O)C(=O)N1Cc1ccccc1
Found: -1

Lookup: Another compound to check: COC(=O)CCC1=C(CC(=O)OC)C(C)=N/C1=C\c1[nH]c(-c2ccc[nH]2)cc1OC
Found: -1

Lookup: Another compound to check: O=C(Nc1ccc(-n2cc(-c3ccncc3)c(-c3ccc(O)c(Cl)c3)n2)cc1)Nc1cccc(Cl)c1Cl
Found: -1

Lookup: Another compound to check: CO/N=C(/C)c1cccc(Nc2cc(-c3ccccc3)nc3ccc(OC)cc23)c1
Found: -1
